target: PARP2 (Homo sapiens)
Sequence (Q9UGN5 whole entry): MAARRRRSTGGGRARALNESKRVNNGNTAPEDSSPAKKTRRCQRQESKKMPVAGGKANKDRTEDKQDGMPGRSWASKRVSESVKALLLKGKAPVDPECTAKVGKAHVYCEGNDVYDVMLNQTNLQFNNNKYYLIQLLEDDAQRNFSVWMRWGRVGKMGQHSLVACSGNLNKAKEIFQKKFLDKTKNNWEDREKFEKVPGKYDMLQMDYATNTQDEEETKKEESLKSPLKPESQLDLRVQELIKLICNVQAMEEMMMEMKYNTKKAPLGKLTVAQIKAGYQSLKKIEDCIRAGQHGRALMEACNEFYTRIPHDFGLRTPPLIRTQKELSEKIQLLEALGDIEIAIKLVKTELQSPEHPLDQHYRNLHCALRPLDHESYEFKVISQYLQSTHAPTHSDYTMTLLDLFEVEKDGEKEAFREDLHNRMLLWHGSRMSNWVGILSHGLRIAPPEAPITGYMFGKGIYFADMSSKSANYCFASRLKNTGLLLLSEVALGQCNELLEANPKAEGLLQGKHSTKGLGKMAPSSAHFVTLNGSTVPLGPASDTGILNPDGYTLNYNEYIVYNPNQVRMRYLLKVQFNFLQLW
reported endpoint: IC50

• Cc1c(-c2ccnc(C(F)(F)F)c2)ccc2c1CCNC2=O = > 100 µM

----------
Target protein (sequence): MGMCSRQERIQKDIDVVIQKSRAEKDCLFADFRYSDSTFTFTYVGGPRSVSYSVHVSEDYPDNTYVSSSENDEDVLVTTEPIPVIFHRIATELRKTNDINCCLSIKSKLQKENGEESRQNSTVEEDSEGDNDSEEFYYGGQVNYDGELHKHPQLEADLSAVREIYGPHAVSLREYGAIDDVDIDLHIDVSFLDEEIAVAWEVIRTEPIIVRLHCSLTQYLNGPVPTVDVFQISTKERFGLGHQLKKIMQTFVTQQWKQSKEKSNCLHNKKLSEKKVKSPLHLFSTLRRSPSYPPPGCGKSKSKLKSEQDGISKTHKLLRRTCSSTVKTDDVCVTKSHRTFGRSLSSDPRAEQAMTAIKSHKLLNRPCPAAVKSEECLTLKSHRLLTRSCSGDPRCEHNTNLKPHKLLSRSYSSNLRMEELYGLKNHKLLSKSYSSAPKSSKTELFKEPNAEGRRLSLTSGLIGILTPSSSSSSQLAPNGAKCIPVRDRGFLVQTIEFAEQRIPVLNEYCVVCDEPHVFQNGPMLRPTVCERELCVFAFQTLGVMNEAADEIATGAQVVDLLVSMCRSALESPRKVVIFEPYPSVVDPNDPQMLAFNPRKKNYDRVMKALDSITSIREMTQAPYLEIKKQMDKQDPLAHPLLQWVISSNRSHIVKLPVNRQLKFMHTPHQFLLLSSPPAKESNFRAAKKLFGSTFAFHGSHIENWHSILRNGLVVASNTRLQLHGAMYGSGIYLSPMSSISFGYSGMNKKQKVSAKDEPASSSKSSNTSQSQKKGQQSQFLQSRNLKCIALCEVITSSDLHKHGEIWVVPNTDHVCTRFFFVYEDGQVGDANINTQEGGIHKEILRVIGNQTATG
pIC50: −log10 of the molar value.
reported endpoint: pIC50

- Cc1c(-c2ccnc(C(F)(F)F)c2)ccc2c1CCNC2=O [Compound 22]: < 4.52

----------
Target: PARP15cat (Homo sapiens)
Sequence (Q460N3 482-678 limits assumed): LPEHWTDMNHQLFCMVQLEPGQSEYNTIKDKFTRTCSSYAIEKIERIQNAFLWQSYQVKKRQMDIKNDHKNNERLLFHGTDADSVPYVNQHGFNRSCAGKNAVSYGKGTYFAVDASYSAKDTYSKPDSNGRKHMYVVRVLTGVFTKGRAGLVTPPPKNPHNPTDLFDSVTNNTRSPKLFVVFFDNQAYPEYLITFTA
pIC50: −log10 of the molar value.
reported endpoint: pIC50

• Cc1c(-c2ccnc(C(F)(F)F)c2)ccc2c1CCNC2=O = 4.20

----------
biological target: PARP5bcat (Homo sapiens)
Sequence (Q9H2K2 959-1164): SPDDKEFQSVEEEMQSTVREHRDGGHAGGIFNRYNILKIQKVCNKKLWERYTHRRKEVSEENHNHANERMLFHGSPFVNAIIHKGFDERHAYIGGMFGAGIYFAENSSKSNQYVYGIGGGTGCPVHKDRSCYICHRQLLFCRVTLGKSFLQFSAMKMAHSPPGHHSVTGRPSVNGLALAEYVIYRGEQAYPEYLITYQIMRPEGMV
pIC50: −log10 of the molar value.
reported endpoint: pIC50

* Cc1c(-c2ccnc(C(F)(F)F)c2)ccc2c1CCNC2=O | < 4.00

----------
Molecular target: PARP11 (Homo sapiens)
Sequence (Q9NR21 1-338): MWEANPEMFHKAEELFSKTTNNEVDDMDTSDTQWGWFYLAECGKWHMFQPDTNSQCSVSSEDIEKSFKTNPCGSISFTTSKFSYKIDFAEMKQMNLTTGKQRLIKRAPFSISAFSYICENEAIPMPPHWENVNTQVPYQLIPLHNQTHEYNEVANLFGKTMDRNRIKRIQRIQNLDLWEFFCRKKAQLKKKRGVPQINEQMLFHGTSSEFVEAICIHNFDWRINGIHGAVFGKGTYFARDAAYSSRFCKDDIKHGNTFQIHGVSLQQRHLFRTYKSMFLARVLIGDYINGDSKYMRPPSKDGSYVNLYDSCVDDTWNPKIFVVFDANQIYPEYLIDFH
Assay: Inhibition of PARP11-mediated ADP-ribosylation of SRPK2 using NAD+ (100 μM)
Assay type: biochemical
Settings: ADP-ribosylation of SRPK2, NAD+ 100 μM
reported endpoint: PARP11 pIC50 ± S.E.M.

* Cc1c(-c2cnc3[nH]ccc3c2)ccc2c1CCNC2=O | 4.92
* Cc1c(-c2cncc(F)c2)ccc2c1CCNC2=O | 4.23
* O=C1NCCc2cc(Cc3ccccc3)ccc21 | 4.78
* Cc1c(-c2ccc3[nH]ccc3c2)ccc2c1CCNC2=O | 5.38
* Cc1c(-c2cnc3ccccc3c2)ccc2c1CCNC2=O | 4.86
* O=C1NCCc2cc(-c3cccc(C(F)(F)F)c3)ccc21 | 4.76
* O=C1NCCc2cc(-c3ccccc3)ccc21 | 5.06
* Cc1cccc(-c2ccc3c(c2)CCNC3=O)c1 | 5.34
* NC(=O)c1ccc(Oc2ccc(C(N)=O)cc2)cc1 [OUL35, 4,4′-oxydibenzamide, reference compound] | 5.68
* Cc1c(-c2ccnc(C(F)(F)F)c2)ccc2c1CCNC2=O | 4.29
* Cc1c(-c2ccncc2)ccc2c1CCNC2=O | 4.67
* O=C1NCCc2cc(-c3cccc(Cl)c3)ccc21 | 5.24
* O=C1NCCc2cc(Br)ccc21 | 4.87
* Cc1c(-c2ccccc2)ccc2c1CCNC2=O | 4.58
* Cc1c(-c2cncc(C(F)(F)F)c2)ccc2c1CCNC2=O | 4.04
* O=C1NCCc2cc(-c3cccc(F)c3)ccc21 | 5.22
* Cc1c(-c2cccnc2)ccc2c1CCNC2=O | 4.52
* Cc1c(-c2ccnc(F)c2)ccc2c1CCNC2=O | 4.35
* Cc1c(-c2ccnc(Cl)c2)ccc2c1CCNC2=O | 4.57
* O=C1NCCc2c1cccc2-c1ccccc1 | 5.93
* O=C1NCCc2c(Br)cccc21 | 5.54
* Cc1ccc2c(c1)CCNC2=O | 4.47
* Cc1cccc2c1CCNC2=O | 5.67
